The measured values listed here are drawn from a melting point compilation (Tetko et al.; mined from patent text by program, amines drawn as free bases though some values may be those of a salt).

Collected melting point values appear next to each entry.

[[record]]
molecule = "O=[N+]([O-])c1cc2oc(-c3ccccc3)nc2cc1N1CCOCC1"
assay_result = "134 to 135 °C"

[[record]]
molecule = "Cc1cc(Br)sc1-c1nc(-c2c(F)cccc2Cl)nn1C"
assay_result = "117 to 118 °C"

[[record]]
molecule = "O=C1c2ccccc2C(=O)c2sc(-c3ccncc3)nc21"
assay_result = "> 260 °C"

[[record]]
molecule = "COc1cc(Nc2c(C#N)cnc3cc(/C=C/CCN4CCOCC4)c(OC)cc23)c(Cl)cc1Cl"
assay_result = "141 to 143 °C"

[[record]]
molecule = "CCc1sc2c(c1S(=O)(=O)c1ccc(OCCCN(C)C(C)c3ccc(OC)c(OC)c3)cc1)CN(Cc1ccccc1Cl)CC2 (configuration not stated)"
assay_result = "110 °C"

[[record]]
molecule = "CN(C)C(=O)C1Cc2ccc(N)cc2NC1=O (configuration not stated)"
assay_result = "219 to 223 °C"

[[record]]
molecule = "CCOCCNc1ncc(Cc2cc(OC)c(OC)c(OC)c2)c(N)n1"
assay_result = "147 °C"

[[record]]
molecule = "C#Cc1ccc(Nc2c(C(=O)c3ccccn3)ccc(F)c2F)c(F)c1"
assay_result = "109 to 111 °C"

[[record]]
molecule = "CCC(=O)NNC(=O)NCCOc1ccccc1"
assay_result = "178 to 183 °C"

[[record]]
molecule = "O=c1[nH]c2cc(Cl)ccc2c(O)c1-c1ccc(Oc2ccccc2)cc1"
assay_result = "274 to 276 °C"


Requested field: melting point. Item: COc1cc(-c2nc3ccc(OCCN(C)C)cc3n2Cc2ccccc2)cc(OC)c1OC
108 °C

Requested field: melting point. Item: CN(C)C=C(C=O)OCCO
148 to 150 °C

Requested field: melting point. Item: Clc1cccc(CN(c2ncnc3[nH]ncc23)C2CCCC2)c1
186 to 187 °C
